Each item that follows carries a reported DC50.
# Assayed target: STAT6 (Homo sapiens)
# Construct: endogenous in cells; host or cells: MOLM-16, KU-812, SKNO1, MB231, L1236
# Sequence (P42226 1-847): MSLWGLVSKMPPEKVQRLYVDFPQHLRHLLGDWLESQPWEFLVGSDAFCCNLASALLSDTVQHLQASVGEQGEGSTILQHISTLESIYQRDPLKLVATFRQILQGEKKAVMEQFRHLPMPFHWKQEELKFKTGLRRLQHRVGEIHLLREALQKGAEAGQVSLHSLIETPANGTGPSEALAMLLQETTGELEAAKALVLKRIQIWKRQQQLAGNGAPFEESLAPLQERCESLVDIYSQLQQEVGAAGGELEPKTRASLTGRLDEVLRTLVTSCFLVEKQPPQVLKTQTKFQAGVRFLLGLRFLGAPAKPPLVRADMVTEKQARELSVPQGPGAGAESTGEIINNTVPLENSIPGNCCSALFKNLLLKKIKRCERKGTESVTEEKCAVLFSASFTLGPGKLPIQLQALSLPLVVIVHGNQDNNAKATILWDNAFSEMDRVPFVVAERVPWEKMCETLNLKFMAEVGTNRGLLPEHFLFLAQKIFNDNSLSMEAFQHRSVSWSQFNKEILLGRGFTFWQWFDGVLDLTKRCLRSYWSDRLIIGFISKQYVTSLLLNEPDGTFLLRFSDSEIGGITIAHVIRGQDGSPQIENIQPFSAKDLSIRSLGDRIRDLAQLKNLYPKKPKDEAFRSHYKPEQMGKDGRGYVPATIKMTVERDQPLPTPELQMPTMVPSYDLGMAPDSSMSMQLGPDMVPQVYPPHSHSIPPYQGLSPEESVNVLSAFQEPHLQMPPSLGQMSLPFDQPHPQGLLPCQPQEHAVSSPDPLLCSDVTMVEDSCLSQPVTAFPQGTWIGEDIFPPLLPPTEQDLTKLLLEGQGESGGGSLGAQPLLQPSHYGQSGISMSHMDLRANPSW
# Method notes: Immunoblotting (Western blot) analysis of STAT6 degradation efficiency of degraders in treated cells
# Assay type: cell-based
# Reported conditions: L1236 cells, read-out: DC50 S6 L1236
Measurement kind: DC50

Cc1ncsc1-c1ccc([C@H](C)NC(=O)[C@@H]2C[C@@H](O)CN2C(=O)[C@@H](NC(=O)CCCCCCCCNC(=O)CO[C@H]2C[C@@H](C(=O)N3CCO[C@H](c4ccccc4)C3)N(C(=O)[C@@H](NC(=O)c3cc4cc(C(F)(F)P(=O)(O)O)ccc4s3)C(C)(C)C)C2)C(C)(C)C)cc1 ... > 10 µM
Cc1ncsc1-c1ccc([C@H](C)NC(=O)[C@@H]2C[C@@H](O)CN2C(=O)[C@@H](NC(=O)CCCNC(=O)CC(=O)N2CCN(C(=O)[C@@H](NC(=O)c3cc4cc(C(F)(F)P(=O)(O)O)ccc4s3)C(C)(C)C)[C@H](C(=O)N3CCC[C@H](c4ccccc4)C3)C2)C(C)(C)C)cc1 ... > 10 µM
Cc1ncsc1-c1ccc([C@H](C)NC(=O)[C@@H]2C[C@@H](O)CN2C(=O)[C@@H](NC(=O)CCCCCCNC(=O)CC(=O)N2CCN(C(=O)[C@@H](NC(=O)c3cc4cc(C(F)(F)P(=O)(O)O)ccc4s3)C(C)(C)C)[C@H](C(=O)N3CCC[C@H](c4ccccc4)C3)C2)C(C)(C)C)cc1 ... > 10 µM

* * *

Reported DC50 is given for each of the following compounds.
# System: STAT5
# Method notes: Immunoblotting (Western blot) analysis of STAT5 degradation efficiency of degraders in treated cells
# Assay type: cell-based
# Reported conditions: KU-812 cells, read-out: DC50 S5 KU-812
Measurement kind: DC50

CC(C)(C)[C@H](NC(=O)c1cc2cc(C(F)(F)P(=O)(O)O)ccc2s1)C(=O)N1CCC[C@H]1C(=O)N(CCC(=O)NCCCC#Cc1cccc2c1CN(C1CCC(=O)NC1=O)C2=O)c1ccc(-c2ccccc2)cc1 (stereo partly shown) [Compound 663] ... 1 to 10 µM
CN(CCCC#Cc1cccc2c1CN(C1CCC(=O)NC1=O)C2=O)C(=O)CCN(C(=O)[C@@H]1CCCN1C(=O)[C@@H](NC(=O)c1cc2cc(C(F)(F)P(=O)(O)OCOC(=O)C(C)(C)C)ccc2s1)C(C)(C)C)c1ccc(-c2nccs2)cc1 (stereo partly shown) [Compound 679] ... 0.1 to 1 µM
CC(C)(C)[C@H](NC(=O)c1cc2cc(C(F)(F)P(=O)(O)O)ccc2s1)C(=O)N1CCC[C@H]1C(=O)N(CCC(=O)NCCCCCCC#Cc1cccc2c1CN(C1CCC(=O)NC1=O)C2=O)c1ccc(Br)cc1 (stereo partly shown) [Compound 404] ... 0.1 to 1 µM
CC(C)(C)[C@H](NC(=O)c1cc2cc(C(F)(F)P(=O)(O)O)ccc2s1)C(=O)N1CCC[C@H]1C(=O)N(CCC(=O)NCCCC#Cc1cccc2c1CN(C1CCC(=O)NC1=O)C2=O)c1ccc2ccccc2c1 (stereo partly shown) [Compound 656] ... 0.1 to 1 µM

* * *

DC50 reference
# Assayed target: STAT6 (Homo sapiens)
# Construct: endogenous in cells; host or cells: MOLM-16, KU-812, SKNO1, MB231, L1236
# Sequence (P42226 1-847): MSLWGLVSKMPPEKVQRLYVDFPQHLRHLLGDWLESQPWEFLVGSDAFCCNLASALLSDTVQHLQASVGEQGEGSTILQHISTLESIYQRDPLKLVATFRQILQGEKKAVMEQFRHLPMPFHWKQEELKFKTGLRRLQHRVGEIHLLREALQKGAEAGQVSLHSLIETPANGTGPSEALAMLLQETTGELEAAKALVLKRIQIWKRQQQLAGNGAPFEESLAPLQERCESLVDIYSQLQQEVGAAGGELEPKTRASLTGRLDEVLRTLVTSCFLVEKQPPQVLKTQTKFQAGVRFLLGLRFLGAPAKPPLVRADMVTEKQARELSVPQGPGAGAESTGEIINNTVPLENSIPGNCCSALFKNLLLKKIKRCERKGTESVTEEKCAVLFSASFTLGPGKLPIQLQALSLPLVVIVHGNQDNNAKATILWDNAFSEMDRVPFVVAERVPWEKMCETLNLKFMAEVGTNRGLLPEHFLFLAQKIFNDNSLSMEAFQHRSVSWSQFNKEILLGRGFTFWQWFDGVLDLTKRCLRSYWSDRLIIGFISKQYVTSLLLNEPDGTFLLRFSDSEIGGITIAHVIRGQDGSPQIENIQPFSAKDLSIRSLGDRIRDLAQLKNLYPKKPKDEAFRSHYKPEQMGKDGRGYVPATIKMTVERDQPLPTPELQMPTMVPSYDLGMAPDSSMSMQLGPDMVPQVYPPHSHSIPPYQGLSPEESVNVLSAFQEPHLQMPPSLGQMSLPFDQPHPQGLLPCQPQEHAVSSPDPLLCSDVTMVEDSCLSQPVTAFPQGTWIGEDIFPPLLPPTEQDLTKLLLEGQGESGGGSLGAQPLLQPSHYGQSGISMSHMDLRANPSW
# Method notes: Immunoblotting (Western blot) analysis of STAT6 degradation efficiency of degraders in treated cells
# Type: cell-based
# Reported conditions: MOLM-16 cells, class symbols, read-out: DC50 S6 MOLM-16
# Description: Evaluation of the degradation efficiency of degraders may be accomplished by immunoblotting analysis. The representative general protocol is the following: Cells are maintained in the appropriate culture medium with 10% FBS at 37° C. and an atmosphere of 5% CO2. Cell lines are used within three months of thawing fresh vials. […] The intensity of Western blot signaling is quantitated using the Odyssey software. […]
Measurement kind: DC50

CC(C)(C)[C@H](NC(=O)c1cc2cc(C(F)(F)P(=O)(O)O)ccc2s1)C(=O)N1CCN(C(=O)CC(=O)NCCCCC#Cc2ccc3c(c2)C(=O)N(C2CCC(=O)NC2=O)C3=O)C[C@H]1C(=O)N1CCO[C@H](c2ccccc2)C1 (stereo partly shown) ... > 10 µM
CC(C)(C)[C@H](NC(=O)c1cc2cc(C(F)(F)P(=O)(O)O)ccc2s1)C(=O)N1C[C@@H](OCC(=O)NCCCCC#Cc2cccc3c2C(=O)N(C2CCC(=O)NC2=O)C3=O)C[C@H]1C(=O)N1CCO[C@H](c2ccccc2)C1 (stereo partly shown) ... > 10 µM
Cc1ncsc1-c1ccc([C@H](C)NC(=O)[C@@H]2C[C@@H](O)CN2C(=O)[C@@H](NC(=O)CCCNC(=O)CC(=O)N2CCN(C(=O)[C@@H](NC(=O)c3cc4cc(C(F)(F)P(=O)(O)O)ccc4s3)C(C)(C)C)[C@H](C(=O)N3CCC[C@H](c4ccccc4)C3)C2)C(C)(C)C)cc1 ... > 10 µM
CC(C)(C)[C@H](NC(=O)c1cc2cc(C(F)(F)P(=O)(O)O)ccc2s1)C(=O)N1C[C@@H](OCCCCC#Cc2cccc3c2CN(C2CCC(=O)NC2=O)C3=O)C[C@H]1C(=O)N1CCO[C@H](c2ccccc2)C1 (stereo partly shown) ... < 0.1 µM

Data credit: patent US20230295197A1
